Source of measurements: patent US10590086B2

# Target Desc: TDO (Homo sapiens)
# Test Details: hTDO biochemical coupled assay
# Setup Conditions: 330 μM L-tryptophan, 17 minutes, room temperature; read-out: hTDO biochemical assay pIC50 (converted)
Readout Kind: IC50

| Smiles Representation | Target Desc | Experimental Value |
| --- | --- | --- |
| CS(=O)(=O)NCCN1CCN(c2cc(Cl)cc3[nH]ncc23)CC1 | TDO (Homo sapiens) | < 3.16 µM |
| Cc1nc2c(o1)CN(c1cc(Cl)cc3[nH]ncc13)CC2(C)C | TDO (Homo sapiens) | < 3.16 µM |
| CS(=O)(=O)N1CCN(c2cccc3[nH]ncc23)CC1 | TDO (Homo sapiens) | 3.24 to 31.6 µM |
| Clc1cc(N2CC=CCC2)c2cn[nH]c2c1 | TDO (Homo sapiens) | < 3.16 µM |

# IC50 (molecule: `CN1C(=O)[C@@H]2CC[C@H]1CN(c1cc(Br)cc3[nH]ncc13)C2` ) is < 3.16 µM

# IC50 (molecule: `Clc1cc(N2C[C@H]3CC[C@@H](C2)NC3)c2cn[nH]c2c1` ) is < 3.16 µM

# IC50 (molecule: `O=C1NC2(CCN(c3cc(Cl)cc4[nH]ncc34)CC2)C(=O)N1Cc1ccccc1` ) is < 3.16 µM

# IC50 (molecule: `OC1(c2cc(Cl)cc3[nH]ncc23)CCCC1` ) is < 3.16 µM

###

# Target Desc: TDO (Homo sapiens, UniProt P48775)
# Sequence (P48775 whole entry): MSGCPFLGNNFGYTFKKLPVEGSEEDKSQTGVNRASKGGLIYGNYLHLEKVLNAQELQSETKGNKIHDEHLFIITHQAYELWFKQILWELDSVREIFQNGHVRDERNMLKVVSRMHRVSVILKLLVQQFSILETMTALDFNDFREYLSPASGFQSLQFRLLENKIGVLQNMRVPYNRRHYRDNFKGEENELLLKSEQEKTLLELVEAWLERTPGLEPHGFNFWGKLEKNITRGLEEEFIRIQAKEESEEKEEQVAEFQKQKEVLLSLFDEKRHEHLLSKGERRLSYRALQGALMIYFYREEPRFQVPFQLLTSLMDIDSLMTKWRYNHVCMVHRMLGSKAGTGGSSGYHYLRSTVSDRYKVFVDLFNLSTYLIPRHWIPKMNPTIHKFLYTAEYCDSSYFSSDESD
# Test Details: hTDO biochemical coupled assay
# Setup Conditions: 330 μM L-tryptophan, 17 minutes, room temperature; read-out: hTDO biochemical assay pIC50 (converted)
Readout Kind: IC50

# IC50 (compound: `COCCS(=O)(=O)N1CCC(c2cc(Cl)cc3[nH]ncc23)CC1` ) is < 3.16 µM

# IC50 (compound: `CN(C)C(=O)CC1CCN(c2cc(Cl)cc3[nH]ncc23)CC1` ) is < 3.16 µM

# IC50 (compound: CS(=O)(=O)N1CCN(c2cc(Cl)cc3[nH]ncc23)C2CCCCC21 (racemic) [Compound 341] ) is > 100 µM

# IC50 (compound: CC(=O)N1CCN(c2cc(Cl)cc3[nH]ncc23)CC1CO (stereo not shown) ) is < 3.16 µM

###

# Target Desc: IDO (Homo sapiens)
# Sequence (P14902 whole entry): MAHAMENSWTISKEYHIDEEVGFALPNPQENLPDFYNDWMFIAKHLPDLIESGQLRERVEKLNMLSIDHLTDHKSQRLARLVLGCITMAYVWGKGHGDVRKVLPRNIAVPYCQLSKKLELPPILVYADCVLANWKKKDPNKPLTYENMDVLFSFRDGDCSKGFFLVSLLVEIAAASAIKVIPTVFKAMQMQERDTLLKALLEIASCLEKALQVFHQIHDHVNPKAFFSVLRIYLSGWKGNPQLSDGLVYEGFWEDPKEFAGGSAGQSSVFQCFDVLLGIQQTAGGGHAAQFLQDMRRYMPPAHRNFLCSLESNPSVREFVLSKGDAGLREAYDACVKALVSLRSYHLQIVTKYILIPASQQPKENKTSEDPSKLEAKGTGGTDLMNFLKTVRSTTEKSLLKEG
# Test Details: SKOV3 kynurenine cell-based assay (IDO induced by IFN-γ)
# Set-up: IDO expression was induced in the SKOV3 cells by the addition of 500 ng/ml IFN-γ; endogenous in cells; host or cells: SKOV3 (human ovarian adenocarcinoma), induced with IFN-γ
# Setup Conditions: SKOV3 human ovarian adenocarcinoma cells, 500 ng/ml IFN-γ, 48 hours, 500 μM L-tryptophan; read-out: SKOV3 Kynurenine cell based assay pIC50 (converted)
Readout Kind: IC50

Reference set (3 entries):
| Molecule | IC50 |
| --- | --- |
| CS(=O)(=O)N1CCN(c2cc(-c3ncco3)cc3[nH]ncc23)CC1 | 32.4 to 100 µM |
| OC1(c2ccccc2)CCN(c2cc(Cl)cc3[nH]ncc23)CC1 | 3.24 to 31.6 µM |
| CS(=O)(=O)c1ccc(-c2cc(Cl)cc3[nH]ncc23)cc1 | 3.24 to 31.6 µM |

# IC50 (molecule: `O=C1NC2(CCO1)CCN(c1cc(Cl)cc3[nH]ncc13)CC2` ) is 32.4 to 100 µM

# IC50 (molecule: CS(=O)(=O)N1CC2CCC1CN2c1cc(Cl)cc2[nH]ncc12 (centres unmarked) ) is 32.4 to 100 µM

# IC50 (molecule: `CN(C)CCN1C(=O)NC2(CCN(c3cc(Cl)cc4[nH]ncc34)CC2)C1=O` ) is < 3.16 µM

# IC50 (molecule: `O=C1N(c2ccccc2)CNC12CCN(c1cc(Cl)cc3[nH]ncc13)CC2` ) is < 3.16 µM
